# target: EGFRvIII-Fc fusion antigen (human, UniProt P00533 25-645)
# test: SPR Biacore T200, EGFRvIII-Fc captured via anti-hu Fc, scFv analyte, 1:1 model;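 also: Multi-cycle kinetics on a CM5 chip in HBS-P+ running buffer, 180 s scFv association then 540 s dissociation, with blank flow cell signals subtracted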
So basically, if Kd comes in under 1 nM it's YES, and if it's 1 nM or more it's NO.

// below: answered binders
- binder: "scFv 477 (scFv, V domains shown, One-chain scFv, His-tagged) VH: EVQLVQSGAEVKKPGESLKISCKGSGYSFSSYWIGWVRQMPGKGLEWMGIIYPGDSDTRYSPSFQGQVTISADKSISTAYLQWSSLKASDTAMYYCARLGSSWTNDAFDIWGQGTLVTVSS VL: SYELTQPPSVSVSPGQTARITCSGDYLPKQYAYWYQQKPGQAPVLVIYKDTERPSGIPERFSGSSSGTTVTLTISGVQAEDEADYYCQSADASGTYYVFGGGTKLTVL"
  assigned_class: "NO"
- binder: "scFv 470 (scFv, V domains shown, One-chain scFv, His-tagged) VH: EVQLVQSGAEVKKPGESLKISCKGSGYSFNSYWIGWVRQMPGKGLEWMGIIYPGDSDTRYSPSFQGQVTISADKSISTAYLQWSSLKASDTAMYYCARLGSSWTNDAFDIWGQGTLVTVSS VL: SYELTQPPSVSVSPGQTARITCSGDALDKQYAYWYQQKPGQAPVLVIYKDSERPSGIPERFSGSSSGTTVTLTISGVQAEDEADYYCQSVDSSETYVVFGGGTKLTVL"
  assigned_class: "NO"
- binder: "scFv 472 (scFv, V domains shown, One-chain scFv, His-tagged) VH: EVQLVQSGAEVKKPGESLKISCKGSGYSFGYYWIGWVRQMPGKGLEWMGIIYPGDSHTRYSPSFQGQVTISADKSISTAYLQWSSLKASDTAMYYCARLGSSWTNDAFDIWGQGTLVTVSS VL: SYELTQPPSVSVSPGQTARITCSGDALPKQYAYWYQQKPGQAPVLVIYKDTERPSGIPERFSGSSSGTTVTLTISGVQAEDEADYYCQSVDSSGTQVVFGGGTKLTVL"
  assigned_class: "YES"
- binder: "scFv 474 (scFv, V domains shown, One-chain scFv, His-tagged) VH: EVQLVQSGAEVKKPGESLKISCKGSGYSFSHYWIGWVRQMPGKGLEWMGITYPGDVDTRYDPSFQGQVTISADKSISTAYLQWSSLKASDTAMYYCARLGSSWTNDAFDIWGQGTLVTVSS VL: SYELTQPPSVSVSPGQTARITCSGDALPKTYAYWYQQKPGQAPVLVIYKDTERPSGIPERFSGSSSGTTVTLTISGVQAEDEADYYCQSADSSGTYLVFGGGTKLTVL"
  assigned_class: "YES"

Switching to the query record.
(Q) Here's an entry: scFv 473 (scFv, V domains shown, One-chain scFv, His-tagged) VH: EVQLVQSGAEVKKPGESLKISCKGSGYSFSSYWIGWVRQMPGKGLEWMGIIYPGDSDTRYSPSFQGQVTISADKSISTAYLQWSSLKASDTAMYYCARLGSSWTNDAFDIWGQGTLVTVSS VL: SYELTQPPSVSVSPGQTARITCSGHALPSQYAYWYQQKPGQAPVLVIYKDTERPSGIPERFSGSSSGTTVTLTISGVQAEDEADYYCQSVDSSGTSVIFGGGTKLTVL . Is its Kd below 1 nM?
(A) YES
